# PBM binding z-score annotations
Test system: RXRa homodimer (NR concentration 180 nM)
procedure details: PBM binding z-score (relative to random genomic background probes); higher = stronger binding; sequences stand for … in GC…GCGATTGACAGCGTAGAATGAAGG
endpoint label: PBM binding z-score

item sequence: TCTACTAGGTCAACGATGGTCAGCTAATCTGCTA
value reported: 3.07
--
item sequence: CAAACTAGATCACGAAAGGTCAAAGTCGAATGAC
value reported: 6.64
--
item sequence: TTGCCTAGGTCATGGGCCAGTATACCACGCGAAC
value reported: 3.94
--
item sequence: TCTGCTAGGTCAACGATGGTCAGCAAATCTGCTA
value reported: 2.45
--
item sequence: ATATGTAGGCTAGCTGGGGTCATTCAGACTAGGC
value reported: 4.96
--
item sequence: AGGACGAGGGCACGCTGAGTTGATAGCAGAGTAG
value reported: 1.51
--
item sequence: ACTTACGGGTCATCGAGGTTATAGCACGCGTATA
value reported: 6.18
--
item sequence: TAGCCGAGGTCAGATCGGGCCAGTATACGCTATA
value reported: 4.74
--
item sequence: TCTATTAGTTGATTTGGGCAACCGAAACAGCGGA
value reported: 0.406
--
item sequence: ATCTCTAGGTAACTAGTTCAGTGAAAGAGAGGAC
value reported: 0.0901
--
item sequence: GCTGCTAGGTCACCTGATGGTCAGCTAAAGCTCG
value reported: 2.64
--
item sequence: TCTAGTTGGTCACGGAGATCACACACGACGGGTA
value reported: 1.19
--
item sequence: GGAACGAGGGCAAGTTGAGAGCAGAGTTTGATGG
value reported: 0.94
--
item sequence: CCTTACGGGTCATTCCAGGTTATAGCATCGGAGT
value reported: 5.2
--
item sequence: CCTCGGTGGACAGAAGGTCAGAGCTGTCCGCTTT
value reported: 1.84
--
item sequence: TCTCGGAGGACACGAAAGGACAGAGCTCGACATC
value reported: 0.152
--
item sequence: ATATGTAGGTTACATCCAGGTCATTCAGGCTATG
value reported: 2.91
--
item sequence: TCTCGGAGGACACGAAAGGTCAGACCTCGACATC
value reported: 4.1
--
item sequence: CATACAGGGTCAACTAGGCCAGAGTAGGGACGGC
value reported: 6.54
--
item sequence: CCGACTGGGGCAGAAAGGCTACCATACCATCCGG
value reported: -0.122
--
item sequence: CGAACTAGGTCATCCAGGATAGTGAATACATTGA
value reported: 2.75
--
item sequence: TTACCAAGGTGAGCTGAGGTCATTGATCCAACTC
value reported: 4.03
--
item sequence: GCTTGTAGATCAAGGTTATGAAAGACTAAGCTAA
value reported: 0.623
--
item sequence: CCTTACGGGTCACGAGGTTTTAGCACGACGAGCG
value reported: 6.87
--
item sequence: TCATATAGGTAAAAGGTGAAAGTAGGTGTGGTAA
value reported: 3.34
--
item sequence: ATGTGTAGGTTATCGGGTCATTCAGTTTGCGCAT
value reported: 3.57
